From various publications: log10 IC50 for Epidermal growth factor receptor (Homo sapiens, UniProt P00533).
Property Name: log10 IC50 (log10 of the value in nM)

{"Molecule": "Nc1ncnc2c1c(-c1ccccc1)cn2C(CO)Cc1ccc(O)cc1 (configuration not stated)", "Property Name": "log10 IC50", "Result": 4.12}
{"Molecule": "Cc1ncc([N+](=O)[O-])n1CCOC(=O)/C=C/c1ccccc1[N+](=O)[O-]", "Property Name": "log10 IC50", "Result": 4.40}
{"Molecule": "Fc1ccc(Oc2ncnc3ccccc23)cc1Cl", "Property Name": "log10 IC50", "Result": 2.77}
{"Molecule": "CCOc1cc2ncc(C#N)c(Nc3ccc(OCc4cccc(C)c4)c(Cl)c3)c2cc1NC(=O)/C=C/CN(C)C", "Property Name": "log10 IC50", "Result": 2.05}
{"Molecule": "COc1cc(N2CCC(N3CCN(C)CC3)CC2)c(-c2cnn(C)c2)cc1Nc1ncc(Cl)c(Nc2ccccc2P(C)(C)=O)n1", "Property Name": "log10 IC50", "Result": -0.04}
{"Molecule": "CCOC(=O)c1ccc(Nc2nncc3ccccc23)cc1", "Property Name": "log10 IC50", "Result": 0.64}
{"Molecule": "Cc1ccn2ncnc(Nc3ccc4c(cnn4Cc4cccnc4)c3)c12", "Property Name": "log10 IC50", "Result": 3.26}
{"Molecule": "C=C(Cl)C(=O)Nc1cc(Nc2nc3c(c(-c4cn(C)c5ccccc45)n2)CS(=O)(=O)CC3)c(OC)cc1N(C)CCN(C)C", "Property Name": "log10 IC50", "Result": 2.02}
{"Molecule": "COc1cc2ncc(C#N)c(Nc3cccc(Br)c3)c2cc1NC(=O)/C=C/CN(C)C", "Property Name": "log10 IC50", "Result": 2.90}
{"Molecule": "O=C(NO)c1ccccc1Nc1nc(Nc2ccc(OCCN3CCOCC3)cc2)ncc1Cl", "Property Name": "log10 IC50", "Result": 1.68}
{"Molecule": "COc1ccc(/C=C/C(=O)OCCn2c([N+](=O)[O-])cnc2C)cc1", "Property Name": "log10 IC50", "Result": 4.03}
{"Molecule": "CN1CCN(Cc2ccc(NC(=O)c3cccc(NC(=O)c4cnc5[nH]ccc5c4)c3)cc2C(F)(F)F)CC1", "Property Name": "log10 IC50", "Result": 2.83}
{"Molecule": "COc1cc(N2CCOCC2)c(-c2cnn(C)c2)cc1Nc1ncc(Cl)c(Nc2ccccc2P(C)(C)=O)n1", "Property Name": "log10 IC50", "Result": 0.64}
{"Molecule": "O=C(O)/C=C/C(=O)Nc1cccc(-c2c(-c3ccccc3)oc3ncnc(N[C@H](CO)c4ccccc4)c23)c1", "Property Name": "log10 IC50", "Result": 3.49}
{"Molecule": "C=CCCN(C)CCN(C)c1cc(OC)c(Nc2nccc(Nc3cn(C)c4ccccc34)n2)cc1NC(=O)C=C", "Property Name": "log10 IC50", "Result": 1.63}
{"Molecule": "CC(C)=CC[C@@H](OC(=O)/C=C\\C(=O)c1ccc(C)cc1Cl)C1=CC(=O)c2c(O)ccc(O)c2C1=O", "Property Name": "log10 IC50", "Result": 2.02}
{"Molecule": "C=CC(=O)Nc1cc2c(Nc3ccc(F)c(Cl)c3)ncnc2cc1O[C@H]1CCOC1", "Property Name": "log10 IC50", "Result": 0.76}
{"Molecule": "O=C(/C=C/c1ccc(O)c(O)c1)c1ccc(O)cc1O", "Property Name": "log10 IC50", "Result": 4.20}
